Biological target: Transient receptor potential cation channel subfamily V member 1 (Homo sapiens, UniProt Q8NER1)
Sequence (Q8NER1 whole entry): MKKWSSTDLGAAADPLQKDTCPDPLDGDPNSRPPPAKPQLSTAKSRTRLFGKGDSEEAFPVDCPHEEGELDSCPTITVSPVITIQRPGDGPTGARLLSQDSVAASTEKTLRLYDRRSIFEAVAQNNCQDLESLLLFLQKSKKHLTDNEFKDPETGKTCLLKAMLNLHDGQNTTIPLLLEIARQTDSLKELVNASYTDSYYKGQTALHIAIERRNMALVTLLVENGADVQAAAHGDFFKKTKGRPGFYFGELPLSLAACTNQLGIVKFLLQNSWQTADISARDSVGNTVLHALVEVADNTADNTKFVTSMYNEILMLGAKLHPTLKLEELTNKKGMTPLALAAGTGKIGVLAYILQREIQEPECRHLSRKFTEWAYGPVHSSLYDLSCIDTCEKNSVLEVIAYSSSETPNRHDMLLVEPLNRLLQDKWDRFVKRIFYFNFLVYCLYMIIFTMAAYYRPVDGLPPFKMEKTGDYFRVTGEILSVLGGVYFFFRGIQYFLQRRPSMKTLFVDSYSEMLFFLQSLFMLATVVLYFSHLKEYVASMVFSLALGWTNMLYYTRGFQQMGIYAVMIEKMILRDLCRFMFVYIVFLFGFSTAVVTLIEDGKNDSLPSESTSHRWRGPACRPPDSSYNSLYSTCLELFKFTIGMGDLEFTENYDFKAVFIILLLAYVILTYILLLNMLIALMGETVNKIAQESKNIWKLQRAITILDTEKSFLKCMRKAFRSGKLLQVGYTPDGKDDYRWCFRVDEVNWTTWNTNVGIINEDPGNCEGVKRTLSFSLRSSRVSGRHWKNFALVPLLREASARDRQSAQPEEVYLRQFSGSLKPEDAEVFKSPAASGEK
pKi: −log10 of the molar value.
Classify by measured pKi: 1.0 if it is equal to or exceeds 8, 0.0 if it is smaller.

[
  {
    "compoundStructure": "O=C(NCc1cccc(C(F)(F)F)c1)Nc1cccc2cnccc12",
    "categoryLabel": 0.0
  },
  {
    "compoundStructure": "O=C(NCc1ccc(Cl)c(C(F)(F)F)c1)Nc1cccc2cnccc12",
    "categoryLabel": 1.0
  },
  {
    "compoundStructure": "CC(C)(C)c1ccc(/C=C/C(=O)Nc2cccc3cnccc23)cc1",
    "categoryLabel": 1.0
  },
  {
    "compoundStructure": "O=C(Nc1cccc(C(F)(F)F)c1)Nc1cccc2cnccc12",
    "categoryLabel": 0.0
  },
  {
    "compoundStructure": "CCCCc1ccc(NC(=O)Nc2cccc3cnccc23)cc1",
    "categoryLabel": 0.0
  },
  {
    "compoundStructure": "O=C(NCc1ccc(OC(F)(F)F)cc1)Nc1cccc2cnccc12",
    "categoryLabel": 1.0
  },
  {
    "compoundStructure": "O=C(CCc1ccc(C(F)(F)F)cc1)Nc1cccc2cnccc12",
    "categoryLabel": 0.0
  },
  {
    "compoundStructure": "O=C(Nc1cc(C(F)(F)F)cc(C(F)(F)F)c1)Nc1cccc2cnccc12",
    "categoryLabel": 1.0
  },
  {
    "compoundStructure": "O=C(NCCc1ccc(C(F)(F)F)cc1)Nc1cccc2cnccc12",
    "categoryLabel": 0.0
  },
  {
    "compoundStructure": "CC(C)(C)c1ccc(CNC(=O)Nc2cccc3cnccc23)cc1",
    "categoryLabel": 1.0
  },
  {
    "compoundStructure": "CCC(C)(C)c1ccc(CCC(=O)Nc2cccc3cnccc23)cc1",
    "categoryLabel": 1.0
  },
  {
    "compoundStructure": "CCCCCc1ccc(C(=O)Nc2cccc3cnccc23)cc1",
    "categoryLabel": 0.0
  },
  {
    "compoundStructure": "O=C(NCc1ccc(C(F)(F)F)cc1)Nc1cccc2cnccc12",
    "categoryLabel": 1.0
  }
]

====

Target: Transient receptor potential cation channel subfamily V member 1 (Homo sapiens, UniProt Q8NER1)
Readings of Ki for the listed compounds

[
  {
    "compoundStructure": "O=C(NCc1ccc(Cl)c(Cl)c1)Nc1cccc2cnccc12",
    "Ki [nM]": 9
  },
  {
    "compoundStructure": "O=C(Nc1ccc(Cl)c(Cl)c1)Nc1cccc2cnccc12",
    "Ki [nM]": 17
  },
  {
    "compoundStructure": "O=C(NCCc1ccc(Cl)c(Cl)c1)Nc1cccc2cnccc12",
    "Ki [nM]": 17
  },
  {
    "compoundStructure": "CC(C)(C)c1ccc(CCC(=O)Nc2cccc3cnccc23)cc1",
    "Ki [nM]": 11
  }
]

// data source = ChEMBL document CHEMBL1148422
